Taken from ChEMBL document CHEMBL1165965.

Give inhibition for every item shown.
measurement target: Serine/threonine-protein kinase 26 (Homo sapiens)
assay protocol: Inhibition of MST4 at 1 uM

Worked cases, answers included:
INSERT INTO measurements (smiles_entry, measurement_target, value_reported) VALUES
  ('CC(=O)N1CCN(c2cc(-c3cnc4c(c3)N(Cc3cc(Cl)ccc3C(F)(F)F)CCN4)ccn2)CC1', 'Serine/threonine-protein kinase 26 (Homo sapiens)', '< 50%'),
  ('CN1CCN(c2ccc(-c3cnc4c(c3)N(Cc3c(F)ccc(F)c3Cl)CCN4)cn2)CC1', 'Serine/threonine-protein kinase 26 (Homo sapiens)', '< 50%'),
  ('O=C(O)c1ccc(-c2cnc3c(c2)N(Cc2cc(Cl)ccc2C(F)(F)F)CCN3)cc1', 'Serine/threonine-protein kinase 26 (Homo sapiens)', '< 50%'),
  ('O=C(c1ccc(-c2cnc3c(c2)N(Cc2cc(Cl)ccc2C(F)(F)F)CCN3)cc1)N1CCC(N2CCCC2)CC1', 'Serine/threonine-protein kinase 26 (Homo sapiens)', '< 50%'),
  ('CN1CCN(c2ccc(-c3cnc4c(c3)N(Cc3cc(F)ccc3F)CCN4)cn2)CC1', 'Serine/threonine-protein kinase 26 (Homo sapiens)', '< 50%');

Parameter requested: inhibition. Apply to each item below.
1. COC1CCN(C(=O)c2ccc(-c3cnc4c(c3)N(Cc3cc(Cl)ccc3C(F)(F)F)CCN4)cc2)CC1
2. CN1CCN(c2ccc(-c3cnc4c(c3)N(Cc3cc(Cl)ccc3Cl)CCN4)cn2)CC1
3. O=C(c1ccc(-c2cnc3c(c2)N(Cc2cc(Cl)ccc2C(F)(F)F)CCN3)cc1)N1CCCCC1
4. FC(F)(F)c1ccc(Cl)cc1CN1CCNc2ncc(-c3ccnc(N4CCNCC4)c3)cc21
5. CN1CCN(c2ccc(-c3cnc4c(c3)N(Cc3cc(Cl)ccc3C(F)(F)F)CCN4)cn2)CC1

Reply:
["< 50%", "< 50%", "< 50%", "< 50%", "< 50%"]

----------
measurement target: UniProt:P08581
Sequence (P08581 whole entry): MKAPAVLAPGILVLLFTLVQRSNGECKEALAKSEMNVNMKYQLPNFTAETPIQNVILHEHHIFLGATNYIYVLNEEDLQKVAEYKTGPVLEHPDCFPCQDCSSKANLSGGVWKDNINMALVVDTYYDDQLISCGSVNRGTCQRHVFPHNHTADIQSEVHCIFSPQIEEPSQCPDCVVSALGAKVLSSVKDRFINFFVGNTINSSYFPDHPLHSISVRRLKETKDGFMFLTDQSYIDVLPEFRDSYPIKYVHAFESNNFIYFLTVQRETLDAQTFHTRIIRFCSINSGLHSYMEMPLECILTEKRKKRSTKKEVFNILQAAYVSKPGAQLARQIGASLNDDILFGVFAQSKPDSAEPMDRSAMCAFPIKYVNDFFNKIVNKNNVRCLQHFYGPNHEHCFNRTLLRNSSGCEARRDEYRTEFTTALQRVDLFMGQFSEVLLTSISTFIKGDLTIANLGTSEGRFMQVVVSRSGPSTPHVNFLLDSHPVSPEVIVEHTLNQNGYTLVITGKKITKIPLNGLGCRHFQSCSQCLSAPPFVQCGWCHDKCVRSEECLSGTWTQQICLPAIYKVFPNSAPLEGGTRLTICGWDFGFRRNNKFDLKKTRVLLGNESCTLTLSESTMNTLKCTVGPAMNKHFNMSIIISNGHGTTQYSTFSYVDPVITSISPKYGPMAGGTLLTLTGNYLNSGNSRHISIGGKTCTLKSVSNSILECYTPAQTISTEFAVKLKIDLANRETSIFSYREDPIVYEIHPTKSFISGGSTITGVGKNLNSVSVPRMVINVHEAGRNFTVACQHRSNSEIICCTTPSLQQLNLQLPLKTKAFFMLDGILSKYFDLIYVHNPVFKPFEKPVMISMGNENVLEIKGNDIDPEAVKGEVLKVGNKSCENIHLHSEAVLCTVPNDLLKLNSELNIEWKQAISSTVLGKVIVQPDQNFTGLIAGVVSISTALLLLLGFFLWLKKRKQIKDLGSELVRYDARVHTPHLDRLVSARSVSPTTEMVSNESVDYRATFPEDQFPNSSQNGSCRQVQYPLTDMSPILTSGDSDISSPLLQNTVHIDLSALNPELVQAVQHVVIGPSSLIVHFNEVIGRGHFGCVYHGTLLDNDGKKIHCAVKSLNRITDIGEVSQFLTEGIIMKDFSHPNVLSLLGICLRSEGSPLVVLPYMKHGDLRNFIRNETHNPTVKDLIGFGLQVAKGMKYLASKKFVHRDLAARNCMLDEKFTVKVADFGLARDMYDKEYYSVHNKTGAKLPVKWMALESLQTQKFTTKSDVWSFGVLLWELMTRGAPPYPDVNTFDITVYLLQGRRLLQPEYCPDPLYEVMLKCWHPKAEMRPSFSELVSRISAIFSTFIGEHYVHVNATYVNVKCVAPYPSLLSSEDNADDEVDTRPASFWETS
assay protocol: Inhibition of MET at 1 uM
measurement kind: inhibition

Sample records with inhibition:
INSERT INTO results (smiles_entry, measurement_kind, value_reported) VALUES
  ('CN1CCN(c2ccc(-c3cnc4c(c3)N(Cc3cc(Cl)ccc3C(F)(F)F)CCN4)cn2)CC1', 'inhibition', '82%'),
  ('CN1CCN(c2ccc(-c3cnc4c(c3)N(Cc3c(F)ccc(F)c3Cl)CCN4)cn2)CC1', 'inhibition', '94%'),
  ('CC(=O)N1CCN(c2cc(-c3cnc4c(c3)N(Cc3cc(Cl)ccc3C(F)(F)F)CCN4)ccn2)CC1', 'inhibition', '86%'),
  ('O=C(c1ccc(-c2cnc3c(c2)N(Cc2cc(Cl)ccc2C(F)(F)F)CCN3)cc1)N1CCC(N2CCCC2)CC1', 'inhibition', '90.3%'),
  ('CN1CCN(c2ccc(-c3cnc4c(c3)N(Cc3cc(F)ccc3F)CCN4)cn2)CC1', 'inhibition', '< 50%');

Quick request: inhibition for each listed item, please.
1. COC1CCN(C(=O)c2ccc(-c3cnc4c(c3)N(Cc3cc(Cl)ccc3C(F)(F)F)CCN4)cc2)CC1
2. O=C(c1ccc(-c2cnc3c(c2)N(Cc2cc(Cl)ccc2C(F)(F)F)CCN3)cc1)N1CCCCC1
3. CN1CCN(c2ccc(-c3cnc4c(c3)N(Cc3cc(Cl)ccc3Cl)CCN4)cn2)CC1
4. FC(F)(F)c1ccc(Cl)cc1CN1CCNc2ncc(-c3ccnc(N4CCNCC4)c3)cc21
5. O=C(O)c1ccc(-c2cnc3c(c2)N(Cc2cc(Cl)ccc2C(F)(F)F)CCN3)cc1

Reply:
1: 76.6%; 2: 66%; 3: 67%; 4: 94%; 5: < 50%

----------
measurement target: Dual specificity mitogen-activated protein kinase kinase 4 (Homo sapiens) (UniProt P45985)
Sequence (P45985 whole entry): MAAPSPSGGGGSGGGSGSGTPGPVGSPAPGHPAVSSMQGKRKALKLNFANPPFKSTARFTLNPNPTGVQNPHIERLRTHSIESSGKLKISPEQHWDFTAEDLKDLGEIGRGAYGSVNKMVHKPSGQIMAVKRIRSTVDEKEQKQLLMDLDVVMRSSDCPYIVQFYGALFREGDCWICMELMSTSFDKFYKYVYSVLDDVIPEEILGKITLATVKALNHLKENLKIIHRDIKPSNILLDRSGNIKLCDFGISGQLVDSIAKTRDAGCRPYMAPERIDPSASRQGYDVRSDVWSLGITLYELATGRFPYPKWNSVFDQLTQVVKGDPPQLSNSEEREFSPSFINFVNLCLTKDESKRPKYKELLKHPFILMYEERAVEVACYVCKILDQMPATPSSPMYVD
assay protocol: Inhibition of MEK4 at 1 uM
measurement kind: inhibition

Known results for compounds:
INSERT INTO measurements (smiles_entry, value_reported) VALUES
  ('CN1CCN(c2ccc(-c3cnc4c(c3)N(Cc3cc(F)ccc3F)CCN4)cn2)CC1', '< 50%'),
  ('CN1CCN(c2ccc(-c3cnc4c(c3)N(Cc3cc(Cl)ccc3Cl)CCN4)cn2)CC1', '< 50%'),
  ('FC(F)(F)c1ccc(Cl)cc1CN1CCNc2ncc(-c3ccnc(N4CCNCC4)c3)cc21', '< 50%'),
  ('CC(=O)N1CCN(c2cc(-c3cnc4c(c3)N(Cc3cc(Cl)ccc3C(F)(F)F)CCN4)ccn2)CC1', '< 50%');

Give inhibition for each listed item.
1. CN1CCN(c2ccc(-c3cnc4c(c3)N(Cc3c(F)ccc(F)c3Cl)CCN4)cn2)CC1
2. CN1CCN(c2ccc(-c3cnc4c(c3)N(Cc3cc(Cl)ccc3C(F)(F)F)CCN4)cn2)CC1

Reply:
< 50%
< 50%

----------
measurement target: MAP kinase-interacting serine/threonine-protein kinase 1 (Homo sapiens) (UniProt Q9BUB5)
Sequence (Q9BUB5 whole entry, looked up): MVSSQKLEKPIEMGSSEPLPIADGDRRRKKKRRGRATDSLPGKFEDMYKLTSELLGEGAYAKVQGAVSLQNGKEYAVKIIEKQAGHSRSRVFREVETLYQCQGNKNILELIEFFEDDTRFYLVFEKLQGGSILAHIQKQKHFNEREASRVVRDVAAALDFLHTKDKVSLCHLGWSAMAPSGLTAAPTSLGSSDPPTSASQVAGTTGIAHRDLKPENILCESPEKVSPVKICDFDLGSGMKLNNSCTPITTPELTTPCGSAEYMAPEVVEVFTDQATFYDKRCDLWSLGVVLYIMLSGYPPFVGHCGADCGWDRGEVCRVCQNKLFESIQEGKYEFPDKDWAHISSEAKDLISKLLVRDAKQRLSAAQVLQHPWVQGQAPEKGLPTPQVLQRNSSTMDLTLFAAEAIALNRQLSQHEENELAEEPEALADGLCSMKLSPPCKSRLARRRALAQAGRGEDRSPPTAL
assay protocol: Inhibition of MKNK1 at 1 uM
measurement kind: inhibition

INSERT INTO results (smiles_entry, measurement_target, measurement_kind, value_reported) VALUES
  ('CC(=O)N1CCN(c2cc(-c3cnc4c(c3)N(Cc3cc(Cl)ccc3C(F)(F)F)CCN4)ccn2)CC1', 'MAP kinase-interacting serine/threonine-protein kinase 1 (Homo sapiens) (UniProt Q9BUB5)', 'inhibition', '< 50%');

Dear colleague, could you send me inhibition for each of the items below? Thanks.
1. CN1CCN(c2ccc(-c3cnc4c(c3)N(Cc3cc(Cl)ccc3C(F)(F)F)CCN4)cn2)CC1
2. CN1CCN(c2ccc(-c3cnc4c(c3)N(Cc3cc(Cl)ccc3Cl)CCN4)cn2)CC1

Reply:
1. < 50%
2. < 50%

I have 3 compounds here; please give me inhibition for each one.
1. CN1CCN(c2ccc(-c3cnc4c(c3)N(Cc3c(F)ccc(F)c3Cl)CCN4)cn2)CC1
2. CN1CCN(c2ccc(-c3cnc4c(c3)N(Cc3cc(F)ccc3F)CCN4)cn2)CC1
3. FC(F)(F)c1ccc(Cl)cc1CN1CCNc2ncc(-c3ccnc(N4CCNCC4)c3)cc21

Reply:
< 50%
< 50%
< 50%

----------
Hi there, I'd appreciate the recorded inhibition for every entry that follows.
measurement target: Serine/threonine-protein kinase MAK (Homo sapiens)
assay protocol: Inhibition of MAK at 1 uM

Worked cases, inhibition given:
INSERT INTO assay_data (smiles_entry, value_reported) VALUES
  ('CN1CCN(c2ccc(-c3cnc4c(c3)N(Cc3cc(Cl)ccc3Cl)CCN4)cn2)CC1', '< 50%'),
  ('CN1CCN(c2ccc(-c3cnc4c(c3)N(Cc3cc(Cl)ccc3C(F)(F)F)CCN4)cn2)CC1', '< 50%'),
  ('FC(F)(F)c1ccc(Cl)cc1CN1CCNc2ncc(-c3ccnc(N4CCNCC4)c3)cc21', '< 50%'),
  ('CN1CCN(c2ccc(-c3cnc4c(c3)N(Cc3cc(F)ccc3F)CCN4)cn2)CC1', '< 50%'),
  ('CC(=O)N1CCN(c2cc(-c3cnc4c(c3)N(Cc3cc(Cl)ccc3C(F)(F)F)CCN4)ccn2)CC1', '< 50%');

Now look at this one.
Ask: Would you kindly share the measured inhibition for "CN1CCN(c2ccc(-c3cnc4c(c3)N(Cc3c(F)ccc(F)c3Cl)CCN4)cn2)CC1" ?
Reply: < 50%

----------
measurement target: Tyrosine-protein kinase receptor Tie-1 (Homo sapiens)
assay protocol: Inhibition of TIE1 at 1 uM
measurement kind: inhibition

Example entries begin here.
INSERT INTO results (smiles_entry, measurement_kind, value_reported) VALUES
  ('CC(=O)N1CCN(c2cc(-c3cnc4c(c3)N(Cc3cc(Cl)ccc3C(F)(F)F)CCN4)ccn2)CC1', 'inhibition', '< 50%'),
  ('CN1CCN(c2ccc(-c3cnc4c(c3)N(Cc3cc(F)ccc3F)CCN4)cn2)CC1', 'inhibition', '< 50%'),
  ('CN1CCN(c2ccc(-c3cnc4c(c3)N(Cc3c(F)ccc(F)c3Cl)CCN4)cn2)CC1', 'inhibition', '< 50%'),
  ('CN1CCN(c2ccc(-c3cnc4c(c3)N(Cc3cc(Cl)ccc3Cl)CCN4)cn2)CC1', 'inhibition', '< 50%'),
  ('CN1CCN(c2ccc(-c3cnc4c(c3)N(Cc3cc(Cl)ccc3C(F)(F)F)CCN4)cn2)CC1', 'inhibition', '< 50%');

Ask: Given the entry "FC(F)(F)c1ccc(Cl)cc1CN1CCNc2ncc(-c3ccnc(N4CCNCC4)c3)cc21" , report its measured inhibition.
Reply: 81%

----------
measurement target: Ephrin type-A receptor 3 (Homo sapiens)
assay protocol: Inhibition of EPHA3 at 1 uM
measurement kind: inhibition

Examples from the recorded data:
INSERT INTO results (smiles_entry, measurement_target, measurement_kind, value_reported) VALUES
  ('FC(F)(F)c1ccc(Cl)cc1CN1CCNc2ncc(-c3ccnc(N4CCNCC4)c3)cc21', 'Ephrin type-A receptor 3 (Homo sapiens)', 'inhibition', '< 50%'),
  ('CN1CCN(c2ccc(-c3cnc4c(c3)N(Cc3cc(F)ccc3F)CCN4)cn2)CC1', 'Ephrin type-A receptor 3 (Homo sapiens)', 'inhibition', '< 50%'),
  ('CN1CCN(c2ccc(-c3cnc4c(c3)N(Cc3cc(Cl)ccc3C(F)(F)F)CCN4)cn2)CC1', 'Ephrin type-A receptor 3 (Homo sapiens)', 'inhibition', '< 50%'),
  ('CC(=O)N1CCN(c2cc(-c3cnc4c(c3)N(Cc3cc(Cl)ccc3C(F)(F)F)CCN4)ccn2)CC1', 'Ephrin type-A receptor 3 (Homo sapiens)', 'inhibition', '< 50%'),
  ('CN1CCN(c2ccc(-c3cnc4c(c3)N(Cc3c(F)ccc(F)c3Cl)CCN4)cn2)CC1', 'Ephrin type-A receptor 3 (Homo sapiens)', 'inhibition', '< 50%');

Count: 5. Required value per item: inhibition.
1. O=C(c1ccc(-c2cnc3c(c2)N(Cc2cc(Cl)ccc2C(F)(F)F)CCN3)cc1)N1CCC(N2CCCC2)CC1
2. O=C(c1ccc(-c2cnc3c(c2)N(Cc2cc(Cl)ccc2C(F)(F)F)CCN3)cc1)N1CCCCC1
3. O=C(O)c1ccc(-c2cnc3c(c2)N(Cc2cc(Cl)ccc2C(F)(F)F)CCN3)cc1
4. CN1CCN(c2ccc(-c3cnc4c(c3)N(Cc3cc(Cl)ccc3Cl)CCN4)cn2)CC1
5. COC1CCN(C(=O)c2ccc(-c3cnc4c(c3)N(Cc3cc(Cl)ccc3C(F)(F)F)CCN4)cc2)CC1

Reply:
1. < 50%
2. < 50%
3. < 50%
4. < 50%
5. < 50%
